protocol_summary: qHTS RealTime-Glo MT Cell Viability Assay in HepG2 cells - 32 hour (AID 1224877); also: nearly all actives have a fitted effect of over 55% in size
condition_description: RealTime-Glo luminescence; series mostly up to 76.8 µM
Inconclusive results are not listed. Calls of active or inactive are those of the source. Calls follow the shape of the dose curve; as a rule, active = well fitted cell-killing curve with a large enough effect in the repeat runs; inconclusive = weak or mixed curves; inactive = flat fitted curve, though single readings scatter.
Respond using exactly one of the listed classes: True (active), False (inactive)

Called result for `Clc1ccc(-c2ccccc2)cc1`
False

Next:
Called result for `CCCSP(=O)(OCC)SCCC`
False

Now this one: `C=CC(=O)OCC(COC(=O)C=C)(COC(=O)C=C)COC(=O)C=C`
True

Now this one: `O=[N+]([O-])c1cc(Cl)ccc1Cl`
False

Now this one: `Fc1ccc(Oc2ccnc3cc(Cl)cc(Cl)c23)cc1`
False

====

protocol_summary: qHTS assay to identify small molecule agonists of the peroxisome proliferator-activated receptor delta (PPARd) signaling pathway - cell viability counter screen (AID 743211); also: nearly all actives have a fitted effect of over 55% in size
condition_description: PPARd-bla HEK293H viability, CellTiter-Glo luminescence, 17 h; series mostly up to 62.6 µM
Records with an inconclusive call do not appear. Active and inactive are the calls of the source. The call rests on the fitted dose curve; in most records, active means well fitted cell-killing curve with a large enough effect in the repeat runs; inconclusive means weak or mixed curves; inactive means no such curve, though single readings can be large or run the other way.
Respond using exactly one of the listed classes: yes (active), no (inactive)

Called result for Clc1ccc(CCC(Cn2ccnc2)Sc2c(Cl)cccc2Cl)cc1 (stereo not drawn)
yes

Now this one: `C=CC(=O)OCC(COC(=O)C=C)(COC(=O)C=C)COC(=O)C=C`
yes

Now this one: `FC(Cl)(Cl)Cl`
no

Now this one: `CCCCCCCCCBr`
no

Next:
Called result for `O=[N+]([O-])O.O=[N+]([O-])O.[Cd]`
yes

Now this one: `S=C(SSC(=S)N1CCCCC1)N1CCCCC1`
yes

Now this one: `Oc1ccc2ccc3cccc4ccc1c2c34`
no

====

experimental_system: Estrogen receptor beta (Homo sapiens)
protocol_summary: qHTS assay to identify small molecule antagonists of the estrogen receptor beta (ER-beta) signaling pathway (AID 1259378)
condition_description: ER-beta-UAS-bla HEK293T, beta-lactamase FRET ratio, 16 h; series mostly up to 92.4 µM
Inconclusive results are not listed. Activity calls are given as the source filed them. Calls follow the shape of the dose curve; as a rule, active = well fitted inhibition curve with a large enough effect in the signal ratio in the repeat runs (not every such curve was filed as active); inconclusive = weak or mixed curves, or effect the other way; inactive = no such curve, though single readings can be large or run the other way; the % refers to the signal ratio.
Respond using exactly one of the listed classes: active, inactive

A selection of reference data follows.
Called result for CN(CCCC(O)c1cccnc1)N=O (centres undefined)
inactive

Now this one: `Nc1ccccc1C(=O)OC/C=C/c1ccccc1`
active

Now this one: `NNC(=O)c1ccccc1`
inactive

Now this one: `N#CCCSCCC#N`
inactive

Now this one: `COCC(=O)N(c1c(C)cccc1C)[C@H](C)C(=O)OC`
inactive

API: the following record is the query input.
Called result for `CC(C)CCCCCOC(=O)c1ccccc1C(=O)OCCCCCC(C)C`
inactive

====

protocol_summary: qHTS assay to identify small molecule antagonists of the estrogen related receptor (ERR) signaling pathway from Tox21 library - cell viability counter screen (AID 1224834); also: nearly all actives have a fitted effect of over 30% in size
condition_description: ERR reporter cells viability, CellTiter-Fluor, 17.5 h; series mostly up to 92.4 µM
Records with an inconclusive call do not appear. Active and inactive are the calls of the source. Calls follow the shape of the dose curve; as a rule, active = well fitted cell-killing curve with a large enough effect in the repeat runs; inconclusive = weak or mixed curves; inactive = flat fitted curve, though single readings scatter.
Respond using exactly one of the listed classes: active, inactive

A selection of reference data follows.
Called result for `O=C(Nc1ccc2[nH]ccc2c1)c1cc2cc(F)ccc2n1Cc1cccc(F)c1`
active

Now this one: CCOc1cc(C(C)(C)C)ccc1C1COC(c2c(F)cccc2F)=N1 (stereo not drawn)
inactive

Now this one: `Clc1ccc(Oc2ccccc2)cc1`
inactive

Now this one: `C[C@@H]1CC[C@@]2(OC1)O[C@H]1[C@@H](O)[C@H]3[C@@H]4CC[C@H]5C[C@@H](O[C@@H]6O[C@H](CO)[C@H](O[C@@H]7O[C@H](CO)[C@@H](O)[C@H](O[C@@H]8OC[C@@H](O)[C@H](O)[C@H]8O)[C@H]7O[C@@H]7O[C@H](CO)[C@@H](O)[C@H](O[C@@H]8O[C@H](CO)[C@@H](O)[C@H](O)[C@H]8O)[C@H]7O)[C@H](O)[C@H]6O)[C@H](O)C[C@]5(C)[C@H]4CC[C@]3(C)[C@H]1[C@@H]2C`
active

Now this one: CC(C)[C@H](C(=O)OC(C#N)c1cccc(Oc2ccccc2)c1)c1ccc(OC(F)F)cc1 (stereo partly drawn)
inactive

Now this one: `c1cc[c]([Sb]([c]2ccccc2)[c]2ccccc2)cc1`
inactive

Now this one: `C[C@]12Cc3nonc3C[C@@H]1CC[C@@H]1[C@@H]2CC[C@@]2(C)[C@H]1CC[C@]2(C)O`
active

Now this one: CCOC(=O)OC1=C(c2cc(C)ccc2C)C(=O)NC12CCC(OC)CC2 (stereo not drawn)
inactive

Now this one: `CC(C)C(=O)Cl`
inactive

Now this one: `O=[N+]([O-])c1cc([N+](=O)[O-])c2ccccc2c1`
inactive

Next:
Called result for `CC(=[OH+])/C=C(/C)[O-].CC(=[OH+])/C=C(\C)[O-].CC(=[OH+])/C=C(\C)[O-].[Al]`
inactive

Now this one: CCCN(CC)CC1COC2(CCC(C(C)(C)C)CC2)O1 (stereo not drawn)
inactive

Now this one: `Cc1ccc(CCl)cc1`
inactive

Now this one: `C=CCOC(N)=O`
inactive

Now this one: CCCCCCCCCCCCCC[P+](CCCCCC)(CCCCCC)CCCCCC (tested in a mixture with another compound)
active

Now this one: `CCOP(=S)(OCC)SCS(=O)(=O)C(C)(C)C`
inactive

Now this one: `CCOCCOC(C)=O`
inactive

Now this one: CC(C)C1CCC(Cc2ccc(Cl)cc2)C1(O)Cn1cncn1 (stereo not drawn)
active

Now this one: `CC(c1ccc(O)cc1)c1ccc(O)cc1`
inactive
